System: SK-MEL-5 melanoma
Assay: NCI tumour cell line growth inhibition, 48 h
I'd appreciate it if you could supply TGI values for the items below.
Numbers only, in µM.

{"compound": "COC(=O)[C@@H]1[C@H]2CC[C@]3(C)[C@@H](OC(C)=O)CC[C@H]3[C@@H]2CC[C@H]1C1(C)SCCS1", "unit abbrev": "µM", "TGI": 21.4}
{"compound": "C/C(=C\\CO)CC[C@@H]1[C@@]2(C)CCCC(C)(C)[C@@H]2CC[C@@]1(C)O", "unit abbrev": "µM", "TGI": 31.8}
{"compound": "CCOC(=O)/N=c1\\ssc(Cl)c1Cl", "unit abbrev": "µM", "TGI": 19.1}

# per-item lookup of TGI; items listed below
1. CC(Br)CN(CC(C)Br)c1ccc2c(c1)Cc1ccccc1-2 (configuration not stated)
2. COc1ccc2c(c1)CCC(CN1CCN(CCOC(c3ccccc3)c3ccccc3)CC1)C2O (configuration not stated)

## Result
1: 25.2; 2: 21.9

# per-item lookup of TGI; items listed below
1. COc1ccc(-c2conc2-c2ccccc2)cc1
2. CCc1ccc(OCc2ccccc2C(=O)Nc2ccc3nc(C)cc(N)c3c2)cc1

## Result
4.47
2.91

---

I'd appreciate it if you could supply TGI values for the items below.
Test system: MDA-MB-231 breast
Assay: NCI tumour cell line growth inhibition, 48 h

Below, each entry is followed by its recorded TGI result.
{"molecule": "CC(=O)OC1COC(N2c3ccccc3[C@@H]3CCc4c([nH]c5ccccc45)[C@@H]32)C(OC(C)=O)C1OC(C)=O (mixture of isomers)", "target": "MDA-MB-231 breast", "TGI": "> 100 µM"}
{"molecule": "Cc1ccc(-c2cc(C(Cl)Cl)on2)cc1", "target": "MDA-MB-231 breast", "TGI": "> 100 µM"}

Shift focus to the following entry.
## Task May I ask what TGI has been recorded for CCCCCCCCCCCCCCCCCCNC(=O)[C@H]1CSC(c2ccc(F)c(OC)c2)N1 (stereo partly drawn) ?
## Result 1.67 µM

---

Tested on: T-47D breast
Assay: NCI tumour cell line growth inhibition, 48 h
measure: GI50

{"input smiles": "NC1(C(=O)O)CSSC1", "result": "32.1 µM"}

# per-item lookup of GI50; items listed below
1. CCCC(=O)Nc1cn(COC)c(C(=O)N2C[C@H]3C[C@@]34C2=CC(=O)c2[nH]cc(C)c24)n1
2. COc1ccccc1-c1nccc(COc2ccccc2C[C@@H](Oc2ncnc3sc(-c4ccc(F)cc4)c(-c4ccc(OCCN5CCN(C)CC5)c(Cl)c4C)c23)C(=O)O)n1

## Result
1. 2.91 µM
2. 3.49 µM

---

System: HL-60(TB) leukemia
Assay: NCI tumour cell line growth inhibition, 48 h
measure: TGI (µM)
Numbers only, in µM.

Below, each entry is followed by its recorded TGI result.
{"molecule": "O=c1n(CCCN2CCOCC2)nc2n1-c1ccc3ccccc3c1SC2", "target": "HL-60(TB) leukemia", "TGI (µM)": 97.8}
{"molecule": "CC(Br)CN(CC(C)Br)c1ccc2c(c1)Cc1ccccc1-2 (centres undefined)", "target": "HL-60(TB) leukemia", "TGI (µM)": 15.6}
{"molecule": "Fc1cccc(F)c1C1SCc2nc3cc(Cl)ccc3n21 (centres undefined)", "target": "HL-60(TB) leukemia", "TGI (µM)": 41.3}

# per-item lookup of TGI; items listed below
1. COc1ccc2c(c1)CCC(CN1CCN(CCOC(c3ccccc3)c3ccccc3)CC1)C2O (centres undefined)
2. OC(CCN1CCN(CCOC(c2ccc(F)cc2)c2ccc(F)cc2)CC1)c1ccc(Br)cc1 (centres undefined)

## Result
1. 15.2
2. 11.2

Just for reference, PubChem BioAssay (NCI) is where these values come from.
